Exercise: for every item that follows, state its recorded OD450.
# assay_target: humanized therapeutic monoclonal antibody IgG1 (hIgG1)
# protocol_text: direct ELISA, hIgG1 coated, B-cell culture medium
Just the number please, in OD450, no unit attached.

Query :: For the binder shown here, rabbit anti-human IgG monoclonal antibody clone 19B1 (antibody, V domains shown) VH: QEQLVESGGGLVQPEGSLTLTCTASGFSFSDSYYMCWVRQAPGKGLEWIACIYGGTITNTYYASWAKGRFTISKTSSTTVTLQMTSLTAADTATYFCARDLGAAGDAYNLWGPGTLVTVSS VL: ASDMTQTPASVSEPVGGTVTIKCQASENIYSSLAWYQQKPGQPPKLLIYDASNLASGVPSRFSGSGSGTEFTLTISDLECADAATYYCQCTYRSSSSSYAFGGGTEVVVKG , give the reported OD450.
Result :: 1.15

Query :: For the binder shown here, rabbit anti-human IgG monoclonal antibody clone 9E6 (antibody, V domains shown) VH: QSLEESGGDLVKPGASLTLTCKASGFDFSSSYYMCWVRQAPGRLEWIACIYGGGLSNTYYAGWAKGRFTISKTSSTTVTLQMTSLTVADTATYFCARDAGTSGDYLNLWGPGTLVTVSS VL: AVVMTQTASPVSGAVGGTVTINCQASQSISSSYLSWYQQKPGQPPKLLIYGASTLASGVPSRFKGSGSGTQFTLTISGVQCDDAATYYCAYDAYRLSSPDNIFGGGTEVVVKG , give the reported OD450.
Result :: 1.28
